# ASSAYED TARGET: T1, human nerve growth factor (beta-NGF) (human, UniProt P01138 122-241)
# T1 construct: mature; also called human NGF; hu NGF
# T1 sequence (P01138 122-241): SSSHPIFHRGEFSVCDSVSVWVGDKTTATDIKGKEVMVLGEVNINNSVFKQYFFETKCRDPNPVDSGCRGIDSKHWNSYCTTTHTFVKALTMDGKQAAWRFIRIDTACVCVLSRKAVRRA
# ASSAY DETAILS: purified scFv, inhibition of human NGF binding to TrkA fusion protein
QUANTITY KIND: pIC50
Note: pIC50 values are expressed as the negative base-10 logarithm of concentration in M.

Use these answered entries as a reference point.
query: Reported pIC50 for 1165D4 scFv (scFv, V domains shown, also called LOT1165D04) VH: EVQLVQSGAEVKKPGSSVKVSCKASGGTFSTYGISWVRQAPGQGLEWIGGIIPIFDTGNSAQSFQGRVTITADESTSTAYMEVSSLRSDDTAVYYCASSSRIYDLNPSLTAYYDMDVWGQGTMVTVSS VL: QAVLTQPSSVSTPPGQKVTISCSGSSSNIENNYVSWYQQLPGTAPKLLIYDNNKRPSGIPDRFSGSKSGTSATLGITGLQTGDEADYYCGTWDSSLSAWVFGGGTKLTVL : what is it?
result: 9.96

query: Next binder up: 1147G9 scFv (scFv, V domains shown, also called LOT1147G09) VH: EVQLVQSGAEVKKPGSSVKVSCKASGGTFSAYGISWVRQAPGQGLEWIGGIIPIFNTGNSAQSFQGRVTITADESTSTAYMEVSSLRSDDTAVYYCASSSRIYDLNPSLTAYYDMDVWGQGTMVTVSS VL: QAVLTQPSSVSTPPGQKVTVSCSGSSSNIGNNYVSWYQQLPGTAPKLLIYDNNKRPSGIPDRFSGSKSGTSATLGITGLQTGDEADYYCGTWDSSLSAWVFGGGTKLTVL
result: 9.60

More entries:
query: Reported pIC50 for 1133C11 scFv (scFv, V domains shown, also called LOT1133C11) VH: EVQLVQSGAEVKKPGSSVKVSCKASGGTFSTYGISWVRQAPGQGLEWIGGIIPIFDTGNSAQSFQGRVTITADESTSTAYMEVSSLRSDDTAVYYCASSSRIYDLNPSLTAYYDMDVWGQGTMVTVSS VL: QAVLTQPSSVSTPPGQKVTISCSGSSSNIGNNYVSWYQQLPGTAPKLLIYDNNKRPSGIPDRFSGSKSGTSATLGITGLQTGDEADYYCGTWDSSLSAWVFGGGTKLTVL : what is it?
result: 8.71
